system: myeloid leukemia patient primary cells Pat.15; test: area under dose-response curve (viability, 1 nM-10 uM) (fraction (0-1)); higher = more sensitive; conditions: 72 h
reported metric: area under dose-response curve

Record O=C(O)Cn1nnc(-c2cc(N3CCC(Oc4cc(F)ccc4Br)CC3)no2)n1 / myeloid leukemia patient primary cells Pat.15, area under dose-response curve recorded as < 0.0301

Note to self: area under dose-response curve of Nc1nc(Cl)nc2c1ncn2[C@H]1C[C@H](O)[C@@H](CO)O1 with myeloid leukemia patient primary cells Pat.15 was 0.193

The compound C=C(C=NNC(=N)N)NNC(=N)N , when measured on myeloid leukemia patient primary cells Pat.15, yielded area under dose-response curve of 0.161

Measured on myeloid leukemia patient primary cells Pat.15, O=C1O/C(=C/Br)CCC1c1cccc2ccccc12 (stereo not drawn) has a documented area under dose-response curve of 0.132

Given the compound COC(=O)[C@]12CCC(C)(C)C[C@H]1[C@H]1C(=O)C=C3[C@@]4(C)C=C(C#N)C(=O)C(C)(C)[C@@H]4CC[C@@]3(C)[C@]1(C)CC2 and test system myeloid leukemia patient primary cells Pat.15, the measured area under dose-response curve is 0.207

Simply: C=C(C)[C@H]1Cc2c(ccc3c2O[C@@H]2COc4cc(OC)c(OC)cc4[C@@H]2C3=O)O1 , myeloid leukemia patient primary cells Pat.15, area under dose-response curve = 0.465

Bench note, myeloid leukemia patient primary cells Pat.15: entry CCC(=O)N1CCN(c2ccc(-n3c(=O)ccc4cnc5ccc(-c6cnc7ccccc7c6)cc5c43)cc2C(F)(F)F)CC1 , its area under dose-response curve = 0.614

# area under dose-response curve measured on myeloid leukemia patient primary cells Pat.15 for item Oc1ccc(Nc2nc(-c3ccc(Cl)cc3)cs2)cc1 = 0.0495

----------
test system: HL-60; assay: cell viability (% survival relative to DMSO control); higher = less cytotoxic; details: 0.1 µM; 72 h; co-treatment: GSK2194069 100 nM
reported metric: cell viability (%)
Express the result in % but write the number alone.

Data point: Oc1ccc(Nc2nc(-c3ccc(Cl)cc3)cs2)cc1 ; cell viability = 99.8

So, O=c1cc(-c2ccccc2)oc2cc(O)c(O)c(O)c12 ? Its cell viability was 93.5

Record N#CC(C#N)=NNc1ccc(OC(F)(F)F)cc1 . Reported cell viability: 80.2

For this molecule ( O=C(C1CC1)N1CC[C@@H](C=C2NNC(=O)N2c2ccc(-c3ccc4occc4c3)cc2)C1 ), measured cell viability is 92

Reported cell viability for O=C(O)CCCCC(CCSCc1ccccc1)SCc1ccccc1 (stereo unspecified) was 89.4

// sample C[C@](N)(Cc1ccc(O)cc1)C(=O)O , its cell viability was 98.9

Reported cell viability of O=C1c2cc([N+](=O)[O-])ccc2-n2c1nc1ccccc1c2=O : 88.8

Input COc1ccc2c(C(=S)N(C)CC(=O)O)cccc2c1C(F)(F)F . Output cell viability: 97.5

// field: cell viability; key: CCCCC/C=C\C/C=C\C/C=C\C/C=C\CCCCN1C(=O)C=CC1=O [N-Arachidonylmaleimide] ; value = 98.4

The molecule listed as O=c1oc2c(O)c(O)cc3c(=O)oc4c(O)c(O)cc1c4c23 shows cell viability equal to 95.1

The value of cell viability measured for the molecule NS(=O)(=O)c1ccc([N+](=O)[O-])cc1 [4-Nitrobenzenesulfonamide] turned out to be 101

----------
Please respond with reported cell viability for every item in the list.
tested on: HL-60; assay: cell viability (% survival relative to DMSO control); higher = less cytotoxic; details: 0.001 µM; 72 h; co-treatment: pictilisib 100 nM
Respond with the bare value in %.

Per the records, this compound ( Nc1nc(Cl)nc2c1ncn2[C@H]1C[C@H](O)[C@@H](CO)O1 ) has cell viability equal to 98.9

cell viability in this record for O=C(O)c1cc(N=Nc2ccc(S(=O)(=O)Nc3ccccn3)cc2)ccc1O : 107

response.value for CCCCCCCCCCC[C@@H](C[C@@H]1OC(=O)[C@H]1CCCCCC)OC(=O)[C@H](CC(C)C)NC=O (field: cell viability) = 99.1

The reported cell viability of the compound CC1(C)[C@@H](O[C@H]2O[C@H](C(=O)O)[C@@H](O)[C@H](O)[C@H]2O[C@@H]2O[C@H](C(=O)O)[C@@H](O)[C@H](O)[C@H]2O)CC[C@]2(C)[C@H]3C(=O)C=C4[C@@H]5C[C@@](C)(C(=O)O)CC[C@]5(C)CC[C@@]4(C)[C@]3(C)CC[C@@H]12 was 94

In plain terms, NS(=O)(=O)c1ccc([N+](=O)[O-])cc1 [4-Nitrobenzenesulfonamide] has a documented cell viability of 105

The compound listed as CCN(CC)CCCC(C)Nc1ccnc2cc(Cl)ccc12 (stereo not drawn) has a reported cell viability of 96.1

Just so you know, measured cell viability for Cc1c(-c2ccc(-c3ccccc3F)cc2)nc2ccc(F)cc2c1C(=O)O came out at 91.4

Please fill in: cell viability reported for O[C@H]1[C@H]2[C@H](O)CCCN2C[C@H]1O = 101

For record C[C@](N)(Cc1ccc(O)cc1)C(=O)O the listed cell viability is 116

Reported cell viability of CC(C)(O)CNc1nc(Nc2ccnc(C(F)(F)F)c2)nc(-c2cccc(C(F)(F)F)n2)n1 : 89.3

Sure, the documented cell viability for O=C1c2cc([N+](=O)[O-])ccc2-n2c1nc1ccccc1c2=O is 95.5

For reference, reported cell viability for COc1ccc(S(=O)(=O)N2CCN(S(=O)(=O)c3ccc4c(c3)OCCO4)CC2)cc1 stands at 105

// recorded cell viability for Cl.NC(CCC(=O)Nc1ccc([N+](=O)[O-])cc1)C(=O)O (stereo not drawn) : 100

----------
test system: myeloid leukemia patient primary cells Pat.4; assay: cell viability (% survival relative to DMSO control); higher = less cytotoxic; details: 100 nM; 72 h
Criterion: cell viability strictly under 90%. Met: t. Not met: f.

Query: In the record for COC(=O)[C@]12CCC(C)(C)C[C@H]1[C@H]1C(=O)C=C3[C@@]4(C)C=C(C#N)C(=O)C(C)(C)[C@@H]4CC[C@@]3(C)[C@]1(C)CC2 , is cell viability less than 90%?
Result: t

Query: Lab log: compare recorded cell viability with 90%; is it strictly lower for O=C(O)C1=CC(=C(c2ccc(O)c(C(=O)O)c2)c2ccc(O)c(C(=O)O)c2)C=CC1=O ?
Result: t

Query: Hello, I'm reviewing records and need to know if cell viability of Cc1c(-c2ccc(-c3ccccc3F)cc2)nc2ccc(F)cc2c1C(=O)O is below 90%. Could you check?
Result: f

Query: # strict comparison: is reported cell viability < 90%? input = COc1cc(/C=C/C(=O)N2CCC=CC2=O)cc(OC)c1OC
Result: t

Query: Given N#CC(C#N)=NNc1ccc(OC(F)(F)F)cc1 , is recorded cell viability strictly lower than 90%?
Result: f

----------
system: HL-60; experiment: cell viability (% survival relative to DMSO control); higher = less cytotoxic; conditions: 10 µM; 72 h; co-treatment: pictilisib 100 nM
Kindly apply the following: y if cell viability is less than 90%, n in every other case.

Query: Please state whether cell viability is below 90% for COC(=O)[C@]12CCC(C)(C)C[C@H]1[C@H]1C(=O)C=C3[C@@]4(C)C=C(C#N)C(=O)C(C)(C)[C@@H]4CC[C@@]3(C)[C@]1(C)CC2
Result: y

Query: Would you kindly verify if cell viability of O=C(O)C(=O)CBr is strictly less than 90%?
Result: n

Query: Regarding Oc1ccc(Nc2nc(-c3ccc(Cl)cc3)cs2)cc1 , kindly confirm whether its cell viability is beneath 90%.
Result: y

Query: Would you kindly verify if cell viability of Nc1nc(Cl)nc2c1ncn2[C@H]1C[C@H](O)[C@@H](CO)O1 is strictly less than 90%?
Result: y

Query: Given CCCCC/C=C\C/C=C\C/C=C\C/C=C\CCCCN1C(=O)C=CC1=O [N-Arachidonylmaleimide] , is recorded cell viability strictly lower than 90%?
Result: n

Query: Here's an entry: O=C1O/C(=C/Br)CCC1c1cccc2ccccc12 (stereo not drawn) . Is its cell viability below 90%?
Result: n

Query: Input COc1ccc(-c2ccccc2)cc1NS(=O)(=O)c1cc(Cl)cc(Cl)c1O ; condition: cell viability strictly below 90%. Does it hold?
Result: n

----------
test system: myeloid leukemia patient primary cells Pat.9; test: cell viability (% survival relative to DMSO control); higher = less cytotoxic; conditions: 10 nM; 72 h
reported metric: cell viability (%)
The figure you give is taken to be in %; do not add the unit.

I looked up Oc1ccc(Nc2nc(-c3ccc(Cl)cc3)cs2)cc1 [SKI II] and its cell viability for myeloid leukemia patient primary cells Pat.9 was 79.9

I looked up Nc1nc(Cl)nc2c1ncn2[C@H]1C[C@H](O)[C@@H](CO)O1 [Cladribine] and its cell viability for myeloid leukemia patient primary cells Pat.9 was 34

Case CC[C@@]1(O)C(=O)OCc2c1cc1n(c2=O)Cc2cc3c(CN(C)C)c(O)ccc3nc2-1 [Topotecan] , myeloid leukemia patient primary cells Pat.9, cell viability recorded as 58.3
